B1: ZNF263 (parent)
chain: FAHSSNLLRHQRIHTGERPYKCPE

- Variants of: B1
- method description: protein stability index of a GFP-peptide fusion (GPS, HEK-293T) (PSI 1-6); higher = more stable;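 also: lentivirally expressed fusions sorted by FACS into six bins by GFP to DsRed ratio, PSI derived from sequencing read proportions per bin multiplied by bin number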
- stated conditions: c terminus: a fixed tail appended
protein stability index values, listed per item
experimental readout: protein stability index

# mutant designation, test result
data = [
    ("Y20L", 2.81),
    ("I13S", 2.68),
    ("S5C", 2.02),
    ("P19Y", 2.58),
    ("R18I", 2.21),
    ("P19T", 3.02),
    ("Y20S", 3.31),
    ("K21A", 2.41),
    ("I13N", 2.99),
    ("P19S", 2.69),
    ("P23M", 2.2),
    ("G16E", 2.67),
    ("N6C", 1.4),
    ("L8P", 2.78),
    ("L8Q", 2.97),
    ("H3C", 2.07),
    ("N6K", 2.17),
    ("K21P", 2.51),
    ("H3P", 2.5),
    ("F1Q", 4.13),
    ("E17F", 1.95),
    ("G16H", 2.02),
    ("L7I", 2.2),
    ("L7S", 2.52),
    ("H3N", 2.48),
    ("H14Y", 1.9),
    ("T15E", 2.24),
    ("E17H", 2.47),
    ("H3Y", 1.96),
    ("K21L", 2.4),
    ("H14W", 3.6),
    ("F1P", 3.95),
    ("K21R", 1.97),
    ("L7C", 2.08),
    ("R18Q", 2.36),
    ("H10M", 1.91),
    ("H14D", 2.81),
    ("R18S", 2.35),
    ("S4W", 2.62),
    ("H10W", 1.8),
    ("P19K", 3.02),
    ("Q11A", 1.61),
    ("F1W", 3.29),
    ("I13R", 2.39),
    ("S4E", 3.05),
    ("R9C", 2.68),
    ("P19I", 2.38),
    ("C22Q", 2.9),
    ("C22D", 3.74),
    ("T15N", 2.36),
    ("E17P", 2.63),
    ("N6M", 2.15),
    ("I13A", 2.85),
    ("Q11K", 2.03),
    ("R9K", 2.93),
    ("L7K", 2.54),
    ("C22Y", 2.44),
    ("A2D", 3.41),
    ("N6R", 1.99),
    ("K21M", 2.07),
    ("S4K", 2.28),
    ("R18Y", 1.86),
    ("L7W", 2.48),
    ("H3T", 2.06),
    ("T15G", 2.19),
    ("E17Q", 2.86),
    ("S4Y", 2.45),
    ("N6D", 2.41),
    ("P23Y", 2.5),
    ("Q11L", 1.69),
    ("G16S", 1.97),
    ("I13P", 3.22),
    ("T15K", 1.99),
    ("Y20G", 3.32),
    ("A2R", 2.82),
    ("H10Y", 2.51),
    ("Y20T", 3.38),
    ("R18K", 2.09),
    ("S4P", 2.62),
    ("Q11I", 1.31),
    ("F1R", 3.46),
    ("P19H", 2.89),
    ("E17R", 1.95),
    ("H10C", 2.76),
    ("T15S", 2.65),
    ("C22K", 2.15),
    ("S4Q", 2.06),
    ("Q11Y", 2.49),
    ("P19R", 2.9),
    ("I13G", 2.91),
    ("R12A", 2.91),
]
